From: ChEMBL document CHEMBL1201862

tested on: 786-0; experiment: NCI tumour cell line growth inhibition, 48 h
Activity calls are given as the source filed them. Cut-off read from the data, not from the text of the source: active = GI50 up to about 1.1 µM and inactive = higher.
Hi there, use one of these labels in your reply, thanks! y for active, n for inactive

Ask | Any idea what this test logged for CC(=O)O[C@H]1CC2C=CC3C(CCC31)O2 (stereo partly specified) ?
Reply | n

Ask | Any idea what this test logged for CCn1c(SCC(=O)NNC(=S)Nc2ccc(Cl)cc2)nc2ccccc2c1=O ?
Reply | n

Ask | Any idea what this test logged for SC1=Nc2ccccc2-c2nc(-c3cccc(Cl)c3)cc(-c3ccccc3)c2C1 ?
Reply | y

Ask | Any idea what this test logged for C1=C[C@@H]2c3ccc4cnccc4c3NC[C@@H]2C1 ?
Reply | n

Ask | Any idea what this test logged for COc1ccc(C2=NN(C(=O)c3ccc(Cl)cc3)C(O)(c3cc(F)c(Cl)cc3Cl)C2)cc1 (stereo unspecified) ?
Reply | n

Ask | Any idea what this test logged for C[N+](C)(C)CC1CCCCCCCCCCC1=O (stereo unspecified) ?
Reply | n

Ask | Any idea what this test logged for CCO/C(Cc1ccc(Cl)cc1)=N/NC(N)=S ?
Reply | n

Ask | Any idea what this test logged for Cc1cc(C)c(C2=NOC(c3ccccc3)(c3cc(=O)n(-c4ccccc4)s3)O2)c(C)c1 (stereo unspecified) ?
Reply | n

Ask | Any idea what this test logged for OC(C/C(=N\N=C(/CC(O)(C(F)(F)F)C(F)(F)F)c1ccccc1)c1ccccc1)(C(F)(F)F)C(F)(F)F ?
Reply | n

Ask | Any idea what this test logged for CCC(N)(C(=O)O)C(C)C (stereo unspecified) ?
Reply | n

Ask | Any idea what this test logged for O=C(OCc1nc2ccc(Br)cc2c(=O)n1-c1ccccc1)c1ccccc1O ?
Reply | n

Ask | Any idea what this test logged for COc1ccc(C(=O)c2sc(Nc3ccc(Cl)cc3)nc2N)cc1 ?
Reply | n

Ask | Any idea what this test logged for CC(=O)OC[C@@]1(C)[C@@H]2[C@@H]3[C@@]4(CO[C@]3(C)C(=O)[C@@]3(OC(C)=O)C[C@H](C)[C@H](OC(C)=O)[C@@H]3[C@H]4OC(C)=O)[C@H](OC(=O)c3ccccc3)C[C@@H]21 ?
Reply | n

Ask | Any idea what this test logged for Cc1ccc(O)c(C(c2cccc(C(c3cc(C)ccc3O)c3cc(C)ccc3O)c2)c2cc(C)ccc2O)c1 ?
Reply | n

Ask | Any idea what this test logged for CCOC(=O)CCC(NC(=O)N1CCN(c2c(C)nc(C)nc2O)CC1)C(=O)OCC (stereo unspecified) ?
Reply | n

Ask | Any idea what this test logged for O=c1cc2n(c(=O)[nH]1)C1OC(C(O)C1O)[C@H]2CCO (stereo partly specified) ?
Reply | n

Ask | Any idea what this test logged for c1ccc(P2c3ccccc3Nc3ccccc32)cc1 ?
Reply | n

Ask | Any idea what this test logged for O=C1C[C@H](c2ccc(O)c(O)c2)Oc2cc(O)cc(O)c21 ?
Reply | n

Ask | Any idea what this test logged for Nc1nc(N)c2ncn(CC3CCC(CO)C3)c2n1 (stereo unspecified) ?
Reply | n

Ask | Any idea what this test logged for COc1cc(C(=O)O)c(-c2cc3c(cc2C=O)OCO3)c(OC)c1OC ?
Reply | n

Ask | Any idea what this test logged for CC(=O)Nc1ccc(C(=O)N2N=C(C)/C(=C/c3ccc(O)cc3)C2=O)cc1 ?
Reply | n
